# (H2O2 produced by Compound)/(H2O2 produced by L-Trp) values compiled below
assay: Photosensitivity screening: H2O2 formation by antioxidant candidates upon light exposure (Amplex Ultra Red Assay); type: physicochemical; details: 1 mM in 20 mM histidine acetate pH 5.5, four hours of light at 250 W/m^2
reported.property: (H2O2 produced by Compound)/(H2O2 produced by L-Trp)

[
  {
    "compound": "Cc1c(C)c2c(c(C)c1O)CCC(C)(C(=O)O)O2 (stereo not shown)",
    "result.value": 122.75
  },
  {
    "compound": "O=C(O)Cc1c[nH]c2ccc(O)cc12 [5-Hydroxyindole-3-Acetic Acid, 5-Hydroxy Indole-3-Acetic Acid]",
    "result.value": 0.11
  },
  {
    "compound": "Nc1ccc(O)cc1C(=O)O [5-Hydroxyanthranilic Acid, 5-Hydroxy Anthranilic Acid]",
    "result.value": 0.44
  },
  {
    "compound": "N[C@@H](Cc1c[nH]c2ccccc12)C(=O)O",
    "result.value": 1
  }
]
